Target: HLA-A*02:01
Test: IEDB peptide-MHC binding, purified MHC/competitive/fluorescence; filed as Kd, often an IC50 or EC50 that approximates it; bounds were set here for any values at or beyond the usual limits of such assays
Settings: source organism: unidentified
MEASURED QUANTITY: Kd (nM)
Respond with the bare value in nM.

[ask] // lookup Kd | system=HLA-A*02:01 | key= FLHEDTEKI
[reply] 20

----------
Target: HLA-B*58:01
Experiment: IEDB peptide-MHC binding, purified MHC/direct/fluorescence; filed as Kd, often an IC50 or EC50 that approximates it; bounds were set here for any values at or beyond the usual limits of such assays
Details: source organism: Influenza A virus (A/Hong Kong/485/1997(H5N1))
MEASURED QUANTITY: Kd

[ask] Return reported Kd; argument: QMRDVLGTF
[reply] ≥ 20 µM

----------
Target: HLA-A*23:01
Assay: IEDB peptide-MHC binding, purified MHC/direct/fluorescence; filed as Kd, often an IC50 or EC50 that approximates it; bounds were set here for any values at or beyond the usual limits of such assays
Details: source organism: Orthohantavirus hantanense
MEASURED QUANTITY: Kd (nM)
Dear colleague, please return just the value in nM, with no unit written.

[ask] Quick one: Kd for FFQNETQKY ?
[reply] 1400

----------
Molecular target: HLA-A*26:01
Test: IEDB peptide-MHC binding, purified MHC/direct/fluorescence; filed as Kd, often an IC50 or EC50 that approximates it; bounds were set here for any values at or beyond the usual limits of such assays
Details: source organism: Toxoplasma gondii
pKd: −log10 of the molar value.
MEASURED QUANTITY: pKd

[ask] Quick one: pKd for LPPVVPPLI ?
[reply] ≤ 4.70

----------
Biological target: HLA-B*15:17
Assay: IEDB peptide-MHC binding, purified MHC/competitive/fluorescence; filed as Kd, often an IC50 or EC50 that approximates it; bounds were set here for any values at or beyond the usual limits of such assays
Conditions: source organism: Entamoeba histolytica HM-1:IMSS
MEASURED QUANTITY: Kd

[ask] Recorded Kd for EVRKAIEFV , please?
[reply] ≥ 20 µM

----------
Molecular target: HLA-A*32:01
Assay: IEDB peptide-MHC binding, purified MHC/competitive/radioactivity; filed as Kd, often an IC50 or EC50 that approximates it; bounds were set here for any values at or beyond the usual limits of such assays
Settings: source organism: Lymphocytic choriomeningitis virus (strain Armstrong)
MEASURED QUANTITY: Kd (µM)
Provide the reading as a plain figure in µM.

[ask] Please look up its Kd: STAPSSPPPY
[reply] 9.4

----------
Target: HLA-A*02:12
Experiment: IEDB peptide-MHC binding, purified MHC/competitive/fluorescence; filed as Kd, often an IC50 or EC50 that approximates it; bounds were set here for any values at or beyond the usual limits of such assays
Conditions: source organism: Fowlpox virus
MEASURED QUANTITY: Kd

[ask] Any idea what Kd was measured for VIMWYNYLF ?
[reply] ≥ 20 µM

----------
Molecular target: HLA-A*01:01
Assay: IEDB peptide-MHC binding, purified MHC/competitive/fluorescence; bounds were set here for any values at or beyond the usual limits of such assays
Settings: source organism: Zaire ebolavirus
MEASURED QUANTITY: IC50

[ask] What IC50 appears in the records for this sequence with HLA-A*01:01? LLQLNETIY
[reply] ≥ 88.9 µM

[ask] Cool, now FLDPATTTS
[reply] ≥ 145 µM
